- Test system: GB4
- assayNotes: qHTS profiling for inhibitors of Plasmodium falciparum proliferation (AID 504749); note: nearly all actives have a fitted effect of over 60% in size
- measurementParameters: P. falciparum in erythrocytes, SYBR Green DNA, 72 h; series mostly up to 28.7 µM
Records with an inconclusive call do not appear. Calls of active or inactive are those of the source. Calls come from the whole dose curve; as a rule, active = well fitted inhibition curve with a large enough effect; inconclusive = small, poorly fitted or top-dose-only effect; inactive = flat fitted curve, though single readings scatter.
# output must be one of T for active, F for inactive

{"columns": ["compound", "labelClass"],
 "data": [
  ["c1ccc2c(c1)Sc1ccccc1N2CCN1CCCC1", "T"],
  ["C[C@H](CCCC(C)(C)O)[C@H]1CC[C@H]2[C@@H]3CC=C4C[C@@H](O)CC[C@]4(C)[C@H]3CC[C@]12C", "F"],
  ["O=C1c2ccccc2C(=O)C1c1ccc(Cl)cc1", "F"],
  ["O=P(O)(O)CP(=O)(O)O", "F"],
  ["O=P(O)(O)O", "F"]
]}

Q: Look up the recorded call for CC(O)CN(C)C (stereo unspecified) in this test.
Ans: F

Q: Assay result, entry CCC(O)c1ccccc1 (stereo unspecified) — outcome?
Ans: F

Q: For this compound, state the assay outcome: COc1cc(S(C)=O)ccc1-c1nc2ncccc2[nH]1 (stereo unspecified)
Ans: F

---

- assayNotes: qHTS Assay for Identifying Gametocytocidal Compounds (AID 743244);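 note: % is set by controls: 0 for no effect and ±100 for the full control effect; actives lower the fluorescent signal which means gametocytes are killed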
- measurementParameters: P. falciparum 3D7 stage III-V gametocytes, alamarBlue, 72 h; stronger effect = lower value
Records with an inconclusive call do not appear.
measuredMetric: max response (%)
Hi! Could you send only the number? It should be in %, unit omitted.

Q: Determine from records and report max response for `O=[N+]([O-])c1c(Cl)cccc1-c1c[nH]cc1Cl`
Ans: 0.263

Q: Respond only with max response recorded for `CCCCO`
Ans: 4.7

Q: For the compound `FC(F)(F)C(F)(F)C(F)(F)C(F)(F)C(F)(F)F` , give its reported max response.
Ans: -2.45

---

- assayNotes: Drug repurposing screens with cells derived from glioblastoma tumor samples (AID 1345199); note: % is set by controls: 0 for no effect and ±100 for the full control effect; nearly all actives have a fitted effect of over 40% in size
- measurementParameters: GBM patient neurospheres viability, ATP luminescence, 48 h; at 45.9 µM (top of the series); tumour line D
Records with an inconclusive call do not appear.
measuredMetric: activity, negative = cell killing (%)
Unit % implied. Number only.

These recorded examples may help you get a feel for the data.
{"columns": ["molecule", "quantityUnit", "valueObserved"],
 "data": [
  ["O=C(O)C1=C(CSc2nnnn2CS(=O)(=O)O)CS[C@@H]2[C@H](NC(=O)[C@H](O)c3ccccc3)C(=O)N12", "%", -23.3],
  ["S=C=Nc1ccc(N=C=S)cc1", "%", -5.1],
  ["O=C(O)COc1ccccc1/C=N/NC(=O)c1ccncc1", "%", 5.85],
  ["C=CC(=O)O", "%", -6.79],
  ["NC[C@@H]1CC[C@@H](N)[C@@H](O[C@H]2[C@H](O)[C@@H](O[C@H]3O[C@H](CO)[C@@H](O)[C@H](N)[C@H]3O)[C@H](N)C[C@@H]2N)O1", "%", 3.76]
]}

Q: Specify reported activity, negative = cell killing for the molecule shown: `FC(F)(F)C(F)(F)C(F)(F)C(F)(F)C(F)(F)F`
Ans: -24.7

Q: Please report the measured activity, negative = cell killing for `CC(C)c1ncc([N+](=O)[O-])n1C`
Ans: -13.9

Q: Quickly give me recorded activity, negative = cell killing for `O=c1[nH]c(=O)n([C@H]2C[C@H](O)[C@@H](CO)O2)cc1/C=C/Br`
Ans: -3.23

Q: In one line, give reported activity, negative = cell killing of the entry `COc1ccc(C(=O)c2ccc(C)cc2)c(O)c1` .
Ans: -4.36

Q: Please report activity, negative = cell killing for the following molecule: `OCl`
Ans: -8.71

Q: Return the recorded activity, negative = cell killing value; entry: `C[Se]CC[C@H](N)C(=O)O`
Ans: -0.664

Q: # return recorded activity, negative = cell killing for entry `O=C1CCC(=O)N1CO`
Ans: -0.644

Q: Could you please provide reported activity, negative = cell killing for `FCOC(C(F)(F)F)C(F)(F)F` ? Thanks!
Ans: -24.3

Q: Identify activity, negative = cell killing associated with the molecule `CC(C)C[C@@H](NC(=O)[C@@H](O)[C@H](N)Cc1ccccc1)C(=O)O`
Ans: -2.21

Q: Query activity, negative = cell killing for `C[C@@H]1C[C@H]2[C@@H]3CCC4=CC(=O)C=C[C@]4(C)[C@@]3(F)[C@@H](O)C[C@]2(C)[C@@]1(O)C(=O)COC(=O)c1cccc(S(=O)(=O)O)c1`
Ans: -16.1

Q: Give recorded activity, negative = cell killing. `CC/C(=C(/CC)c1ccc(OP(=O)(O)O)cc1)c1ccc(OP(=O)(O)O)cc1`
Ans: -11.4

Q: Provide activity, negative = cell killing value for the following molecule: COC(=O)C(CN)c1c[nH]c2ccc(OC)cc12 (stereo unspecified)
Ans: -14.4

Q: Identify measured activity, negative = cell killing corresponding to CC(C)(C)NCC(O)c1ccc(O)c(CO)n1 (stereo unspecified)
Ans: 7.95

---

- assayNotes: S16 Schwann cell PMP22 intronic element beta-lactamase assay (AID 624044);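 note: 0% = DMSO and -100% = potassium clavulanate positive control; nearly all actives have a fitted effect of over 15% in size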
- measurementParameters: S16 rat Schwann cells, PMP22 element beta-lactamase FRET, 24 h; at 38.3 µM (top of the series) unless noted
Records with an inconclusive call do not appear.
measuredMetric: ratio activity, negative = inhibition (%)
Only the number, expressed in %, is required.

Q: # return recorded ratio activity, negative = inhibition for input CC(CN(C)C)CN1c2ccccc2Sc2ccc(C(F)(F)F)cc21 (stereo not given)
Ans: -9.58

Q: Tell me ratio activity, negative = inhibition reported for CSCCC(N)C(=O)O (stereo not given)
Ans: 5.55

Q: Supply recorded ratio activity, negative = inhibition for `CC(/C=C/C=C(\C)C(=O)O[C@@H]1O[C@H](CO[C@@H]2O[C@H](CO)[C@@H](O)[C@H](O)[C@H]2O)[C@@H](O)[C@H](O)[C@H]1O)=C\C=C\C=C(C)\C=C\C=C(/C)C(=O)O[C@@H]1O[C@H](CO[C@@H]2O[C@H](CO)[C@@H](O)[C@H](O)[C@H]2O)[C@@H](O)[C@H](O)[C@H]1O` here.
Ans: 3.54

Q: Could you please provide reported ratio activity, negative = inhibition for CC1CC(OC(=O)C(O)c2ccccc2)CC(C)(C)C1 (stereo not given) ? Thanks!
Ans: -3.78

Q: Tell me ratio activity, negative = inhibition reported for `[O]=[Bi][O]C(=O)[O][Bi]=[O]`
Ans: -4.42

---

- Tested on: CP217
- assayNotes: qHTS profiling for inhibitors of Plasmodium falciparum proliferation (AID 504749); note: nearly all actives have a fitted effect of over 60% in size
- measurementParameters: P. falciparum in erythrocytes, SYBR Green DNA, 72 h; series mostly up to 28.7 µM
- Experimental: NIH National Institute of Allergy and Infectious Diseases [NIAID] NIH Chemical Genomics Center [NCGC] […] Because mature erythrocytes lack DNA, only Plasmodium-derived DNA is detected. NCGC Assay Protocol Summary: The SYBR Green viability assay was adapted from a method described previously (Plouffe et al., 2008). […] The following morning, fluorescence intensity at 485(14) nm excitation and 535(25) nm emission wavelengths was measured on an EnVision (Perkin Elmer) plate reader. […]
Results filed as inconclusive are left out. Active and inactive are the calls of the source. The call rests on the fitted dose curve; in most records, active means well fitted inhibition curve with a large enough effect; inconclusive means small, poorly fitted or top-dose-only effect; inactive means flat fitted curve, though single readings scatter.
Output constraint: value belongs to active, inactive

{"columns": ["molecule", "targetOrTestSystem", "labelClass"],
 "data": [
  ["CC(CNC(=O)c1cccnc1)NC(=O)c1cccnc1 (stereo unspecified)", "CP217", "inactive"],
  ["O=C(O)CCC(=O)c1ccc(-c2ccccc2)cc1", "CP217", "inactive"],
  ["CC(C)Cc1ccc([C@@H](C)C(=O)NS(C)(=O)=O)cc1", "CP217", "inactive"],
  ["Cc1ncc(C[n+]2csc(CCOP(=O)(O)OP(=O)(O)O)c2C)c(N)n1", "CP217", "inactive"]
]}

Q: Short answer needed: outcome of this test for `C[C@H](CCC(=O)O)[C@H]1CC[C@H]2[C@@H]3CC[C@@H]4C[C@H](O)CC[C@]4(C)[C@H]3C[C@H](O)[C@]12C` ?
Ans: inactive

Q: Given `CCCCC[C@H](O)/C=C/[C@@H]1[C@H]2C/C(=C/CCCC(=O)O)O[C@H]2C[C@H]1O` , state the outcome it received in this test.
Ans: inactive

Q: Recorded call for `CCCCCCCCCC(=O)NO` ?
Ans: inactive

Q: Test call for this molecule, please: `CCCCCCOC(=O)c1cccnc1`
Ans: inactive

Q: Please state the recorded outcome for this molecule: `CN=C1C=CC(=C(c2ccc(N(C)C)cc2)c2ccc(N(C)C)cc2)C=C1`
Ans: active

Q: What was the test verdict on `[O-][N+](=Nc1ccccc1)c1ccccc1` ?
Ans: inactive

Q: Could you check what this test reported for `FC(F)(F)C(F)(F)C(F)(F)C(F)(F)C(F)(F)C(F)(F)F` ?
Ans: inactive

Q: What outcome does the record of this test show for `FC(F)(F)C(F)(F)C(F)(F)C(F)(F)C(F)(F)F` ?
Ans: inactive

Q: For `NCCO/C=C/[C@H](N)C(=O)O` , what call appears in the results of this test?
Ans: inactive

Reference for the values: PubChem BioAssay (NCATS)
